Compiled notes: published Ki values involving Histamine H3 receptor (Rattus norvegicus, UniProt Q9QYN8).
measure: Ki (nM)

>>> test_result("CCCCCNCc1ccc(-c2ccc(CNCCCCC)cc2)cc1")
3310
>>> test_result("CC1CCN(C(=O)c2ccc(-c3ccc(OCCCNC(C)C)cc3)cc2)CC1")
479
>>> test_result("Cn1c(-c2ccc(OCCCN3CCCC3)cc2)nc2ccccc2c1=O")
12
>>> test_result("N#Cc1ccc(-c2ccc3c(c2)CCN(CCCN2CCCCC2)C3=O)cc1")
153
>>> test_result("CCCCCC(=O)c1ccc(OCCCN2CCN(C(=O)[C@H](N)CC(C)C)CC2)cc1")
61.7
>>> test_result("Cc1cc(OCCCN2CCC[C@H]2C)ccc1C(=O)CN1CCOCC1")
244
>>> test_result("C[C@@H]1CCCN1CCCOc1ccc(C(=O)CN2CCN(C(=O)c3ccccc3)CC2)cc1")
14
>>> test_result("CS(=O)(=O)N1CCc2ccc(OCCCN3CCCCC3)cc2C1")
74.5
>>> test_result("Cn1nc(-c2ccc(OCCCN3CCCC3)cc2)c2ccccc2c1=O")
3.6
>>> test_result("Brc1cc(CN2CCCCC2)cc(Br)c1OCCCN1CCCCC1")
57
>>> test_result("CCCCCC(=O)c1ccc(OCCCN2CCN(C(=O)C(C)(C)O)CC2)cc1")
57.5
